test system: Brain; experiment: Biodistribution in ddY mouse brain at 2 uCi, iv after 10 mins; type: ADME, organism-based; settings: in vivo
READOUT: Drug uptake (% ID/g)

1: CNc1ccc(-c2cc(=O)c3cc([125I])ccc3o2)cc1
2: O=c1cc(-c2ccc(O)cc2)oc2ccc([125I])cc12
**Q:** Param metric = Drug uptake; output whichever of 1 , 2 has the minimum value. Return value: the label identifying the chosen record.
**A:** 2
(2: 1.9 % ID/g, 1: 3.68 % ID/g)

A: COc1ccc(-c2cc(=O)c3cc([125I])ccc3o2)cc1
B: CN(C)c1ccc(-c2cc(=O)c3cc([125I])ccc3o2)cc1
**Q:** When their Drug uptake values are compared, which is larger, A or B ? Kindly give the label for the entry you pick.
**A:** B

---

tested on: Liver; test: Biodistribution in ddY mouse liver at 2 uCi, iv after 30 mins; type: ADME, organism-based; conditions: in vivo, 0.5 h
READOUT: Drug uptake (% ID/g)

Examples from the recorded data:
- CHEM SMILES: "CN(C)c1ccc(-c2cc(=O)c3cc([125I])ccc3o2)cc1"
  Drug uptake, % ID/g: 15.71
- CHEM SMILES: "COc1ccc(-c2cc(=O)c3cc([125I])ccc3o2)cc1"
  Drug uptake, % ID/g: 3.75

P: O=c1cc(-c2ccc(O)cc2)oc2ccc([125I])cc12
Q: CNc1ccc(-c2cc(=O)c3cc([125I])ccc3o2)cc1
**Q:** Among P and Q , whose measured Drug uptake is the smaller figure? Mark your selection by writing its label.
**A:** P
(P: 6.8 % ID/g, Q: 18.61 % ID/g)

---

system: Liver; assay: Biodistribution in ddY mouse liver at 2 uCi, iv after 60 mins; assay type: ADME, organism-based; conditions: in vivo, 1 h
READOUT: Drug uptake (% ID/g)

- CHEM SMILES: "CNc1ccc(-c2cc(=O)c3cc([125I])ccc3o2)cc1"
  Drug uptake / % ID/g: 15.14

1: COc1ccc(-c2cc(=O)c3cc([125I])ccc3o2)cc1
2: O=c1cc(-c2ccc(O)cc2)oc2ccc([125I])cc12
3: CN(C)c1ccc(-c2cc(=O)c3cc([125I])ccc3o2)cc1
**Q:** Rank items: key Drug uptake, increasing. To answer, arrange all of the labels according to the requested order.
**A:** 1, 2, 3
(1: 1.88 % ID/g, 2: 4.78 % ID/g, 3: 12.4 % ID/g)

---

tested on: Kidney; assay: Biodistribution in ddY mouse kidney at 2 uCi, iv after 2 mins; format: ADME, organism-based; details: in vivo
READOUT: Drug uptake (% ID/g)

- CHEM SMILES: "COc1ccc(-c2cc(=O)c3cc([125I])ccc3o2)cc1"
  Drug uptake, % ID/g: 7.99
- CHEM SMILES: "CN(C)c1ccc(-c2cc(=O)c3cc([125I])ccc3o2)cc1"
  Drug uptake, % ID/g: 8.33

P: O=c1cc(-c2ccc(O)cc2)oc2ccc([125I])cc12
Q: CNc1ccc(-c2cc(=O)c3cc([125I])ccc3o2)cc1
**Q:** Would you let me know which has the greater Drug uptake value, P or Q ? I would appreciate it if you answered with the label of your choice.
**A:** P

---

system: Intestine; assay: Biodistribution in ddY mouse intestine at 2 uCi, iv after 30 mins; type: ADME, organism-based; settings: in vivo, 0.5 h
READOUT: Drug uptake (% ID/g)

I: COc1ccc(-c2cc(=O)c3cc([125I])ccc3o2)cc1
II: CN(C)c1ccc(-c2cc(=O)c3cc([125I])ccc3o2)cc1
**Q:** Of I and II , which one carries the higher reported Drug uptake? Please respond with the label that marks your chosen entry.
**A:** I
(I: 22.51 % ID/g, II: 12.97 % ID/g)

a: CNc1ccc(-c2cc(=O)c3cc([125I])ccc3o2)cc1
b: O=c1cc(-c2ccc(O)cc2)oc2ccc([125I])cc12
**Q:** Which one would you say has the larger Drug uptake value: a , or b ? Your answer should be the label attached to the chosen record.
**A:** b
(b: 22.01 % ID/g, a: 12.84 % ID/g)

---

tested on: Blood; assay: Biodistribution in ddY mouse blood at 2 uCi, iv after 2 mins; assay type: ADME, organism-based; conditions: in vivo
READOUT: Drug uptake (% ID/g)

Solved entries:
- CHEM SMILES: "CN(C)c1ccc(-c2cc(=O)c3cc([125I])ccc3o2)cc1"
  TARGET OF ASSAY: "Blood"
  NUMBER: 1.87
- CHEM SMILES: "CNc1ccc(-c2cc(=O)c3cc([125I])ccc3o2)cc1"
  TARGET OF ASSAY: "Blood"
  NUMBER: 1.89

A: COc1ccc(-c2cc(=O)c3cc([125I])ccc3o2)cc1
B: O=c1cc(-c2ccc(O)cc2)oc2ccc([125I])cc12
**Q:** Param metric = Drug uptake; output whichever of A , B has the minimum value. Answer format: the label of the selected item.
**A:** A

---

test system: Kidney; experiment: Biodistribution in ddY mouse kidney at 2 uCi, iv after 30 mins; type: ADME, organism-based; settings: in vivo, 0.5 h
READOUT: Drug uptake (% ID/g)

Guide cases for Drug uptake, answers given:
- CHEM SMILES: "COc1ccc(-c2cc(=O)c3cc([125I])ccc3o2)cc1"
  TARGET OF ASSAY: "Kidney"
  UNIT: "% ID/g"
  Drug uptake: 4.51
- CHEM SMILES: "CNc1ccc(-c2cc(=O)c3cc([125I])ccc3o2)cc1"
  TARGET OF ASSAY: "Kidney"
  UNIT: "% ID/g"
  Drug uptake: 3.85

a: CN(C)c1ccc(-c2cc(=O)c3cc([125I])ccc3o2)cc1
b: O=c1cc(-c2ccc(O)cc2)oc2ccc([125I])cc12
**Q:** Could you determine which record has the numerically smaller Drug uptake? Candidates: a and b Select an item and report its label.
**A:** a

---

tested on: Heart; assay: Biodistribution in ddY mouse heart at 2 uCi, iv after 2 mins; type: ADME, organism-based; conditions: in vivo
READOUT: Drug uptake (% ID/g)

- CHEM SMILES: "COc1ccc(-c2cc(=O)c3cc([125I])ccc3o2)cc1"
  UNIT: "% ID/g"
  NUMBER: 4.98
- CHEM SMILES: "CN(C)c1ccc(-c2cc(=O)c3cc([125I])ccc3o2)cc1"
  UNIT: "% ID/g"
  NUMBER: 5.63
- CHEM SMILES: "O=c1cc(-c2ccc(O)cc2)oc2ccc([125I])cc12"
  UNIT: "% ID/g"
  NUMBER: 5.51
- CHEM SMILES: "CNc1ccc(-c2cc(=O)c3cc([125I])ccc3o2)cc1"
  UNIT: "% ID/g"
  NUMBER: 4.87

---

system: Blood; assay: Biodistribution in ddY mouse blood at 2 uCi, iv after 30 mins; assay type: ADME, organism-based; details: in vivo, 0.5 h
READOUT: Drug uptake (% ID/g)

As a guide, the following entries are already answered.
- CHEM SMILES: "COc1ccc(-c2cc(=O)c3cc([125I])ccc3o2)cc1"
  UNIT: "% ID/g"
  Drug uptake: 0.4
- CHEM SMILES: "CNc1ccc(-c2cc(=O)c3cc([125I])ccc3o2)cc1"
  UNIT: "% ID/g"
  Drug uptake: 1.34

a: CN(C)c1ccc(-c2cc(=O)c3cc([125I])ccc3o2)cc1
b: O=c1cc(-c2ccc(O)cc2)oc2ccc([125I])cc12
**Q:** Of the two listed items, which has the higher Drug uptake? First: a Second: b Mark your answer with the label of the selected entry.
**A:** a

---

system: Stomach; test: Biodistribution per organ in ddY mouse stomach at 2 uCi, iv after 60 mins; type: ADME, organism-based; settings: in vivo, 1 h
READOUT: Drug uptake (% ID/organ)

- CHEM SMILES: "CN(C)c1ccc(-c2cc(=O)c3cc([125I])ccc3o2)cc1"
  UNIT: "% ID/organ"
  NUMBER: 1.06
- CHEM SMILES: "COc1ccc(-c2cc(=O)c3cc([125I])ccc3o2)cc1"
  UNIT: "% ID/organ"
  NUMBER: 0.31

1: CNc1ccc(-c2cc(=O)c3cc([125I])ccc3o2)cc1
2: O=c1cc(-c2ccc(O)cc2)oc2ccc([125I])cc12
**Q:** From the recorded data, which exceeds the other in Drug uptake: 1 or 2 ? Please reply using the label of the selected record.
**A:** 1
(1: 1.8 % ID/organ, 2: 0.81 % ID/organ)

---

system: Spleen; assay: Biodistribution in ddY mouse spleen at 2 uCi, iv after 10 mins; assay type: ADME, organism-based; conditions: in vivo
READOUT: Drug uptake (% ID/g)

- CHEM SMILES: "CN(C)c1ccc(-c2cc(=O)c3cc([125I])ccc3o2)cc1"
  Drug uptake / % ID/g: 1.92

I: O=c1cc(-c2ccc(O)cc2)oc2ccc([125I])cc12
II: CNc1ccc(-c2cc(=O)c3cc([125I])ccc3o2)cc1
**Q:** API: POST /compare with I and II ; response names the item with higher Drug uptake. Bench note: the answer is the label of the chosen record.
**A:** II
